# subject.of.test: human GPR120 (Homo sapiens (Human), UniProt Q5NUL3)
# Sequence (Q5NUL3 whole entry): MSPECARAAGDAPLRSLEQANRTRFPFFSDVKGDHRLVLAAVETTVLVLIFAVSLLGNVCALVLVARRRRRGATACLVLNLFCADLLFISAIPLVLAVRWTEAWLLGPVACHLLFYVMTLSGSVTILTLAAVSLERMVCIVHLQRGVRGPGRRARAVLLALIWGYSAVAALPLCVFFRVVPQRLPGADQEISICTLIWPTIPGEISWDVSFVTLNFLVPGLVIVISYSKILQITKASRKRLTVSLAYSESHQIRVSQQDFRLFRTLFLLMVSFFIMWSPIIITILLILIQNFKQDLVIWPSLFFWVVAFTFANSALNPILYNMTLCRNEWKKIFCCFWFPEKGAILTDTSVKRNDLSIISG
# test.summary: GPR120 pERK AlphaScreen SureFire Assay (human)
# study.conditions: CHO cells stably transfected with short form of human GPR120
endpoint.label: EC50 (nM)

(1) CC(C)Oc1cc(Cl)cc(-c2ccc([C@H]3C[C@@H](OCC(=O)O)C3)cc2)c1
(2) O=C(O)C[C@H]1C[C@@H](Oc2ccc(-c3cc(Oc4ccccc4)ccc3F)cc2)C1
(3) O=C(O)[C@H]1CC1[C@H]1C[C@@H](c2ccc(-c3cc(Oc4ccccc4)ccc3F)cc2)C1 (stereo in doubt)
(4) O=C(O)[C@H]1C[C@@H](Oc2ccc(-c3cc(Oc4ccccc4)ccc3F)cc2)C1
Place the items in sequence of falling EC50. Reply: labels, ordered per the request.
3, 4, 1, 2

(a) O=C(O)[C@H]1C[C@H](Oc2ccc(-c3cc(Oc4ccccc4)ccc3F)cc2)C1
(b) CC(C)Oc1ccc(F)c(-c2ccc(C3CC4(C3)CC4C(=O)O)cc2)c1 (single isomer, unassigned) [Example 42]
Could you tell me which of a and b has the lower EC50 reading? State your choice using its label.
a
(a: 440 nM, b: 2210 nM)

(A) CC(C)Oc1ccc(F)c(-c2ccc(C=C3CC(C(=O)O)C3)cc2)c1 (stereo not shown)
(B) O=C(O)CO[C@H]1C[C@@H](c2ccc(-c3cc(Oc4ccncc4)ccc3F)cc2)C1
(C) O=C(O)COCC1CC(OCc2cccc(Oc3ccccc3)c2)C1 (stereo not shown)
Ascending sort, EC50. Give the labels in the order specified.
A, B, C
(A: 460 nM, B: 1900 nM, C: 3850 nM)

(P) COc1ccc(OC(F)(F)F)cc1-c1ccc([C@H]2C[C@@H](OCC(=O)O)C2)cc1
(Q) CC(C)Oc1ccc(F)c(-c2ccc([C@H]3C[C@@H](CC(=O)O)C3)cc2)c1
(R) CC(C)Oc1ccc(F)c(-c2ccc(C3CC(CC(=O)O)C3)cc2)c1 (stereo not shown)
Ascending sort, EC50. Please write the labels in the order that was asked for.
Q, R, P

(a) CC(C)Oc1ccc(F)c(-c2ccc(CC3CC(C(=O)O)C3)cc2)c1 (single isomer, unassigned) [Example 49]
(b) CC(C)Oc1ccc(F)c(-c2ccc([C@H]3C[C@H](CC(=O)O)C3)cc2)c1
Form field 'greater EC50' accepts a or b ; which applies? # answer = label of selected item
a
